B1: CPEB3 Ribozyme (parent)
chain: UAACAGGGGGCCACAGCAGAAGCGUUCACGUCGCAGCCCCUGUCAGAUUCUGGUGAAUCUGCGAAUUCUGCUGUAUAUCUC

variants of: B1; assay: self-cleavage, relative activity (ratio to wild type); higher = more cleavage; in vitro, sequencing
REPORTED METRIC: self-cleavage
Kindly provide the number alone.

UAACAGGGGGCCACAGCAGAAGCGUUCACGCCGCAGCCCCUGUCAGAUUAUGGUGAAUCUGCGAAUUCUGCUGUAUAUCUC [U31C C50A]    0.67
UAACAGGGGGCCACAGCAGAAGCGUUCACGUCGCAGCCCCUGUCAGAUUCUGGUGAAUCCGCGAACUCUGCUGUAUAUCUC [U60C U66C]    0.29
UAACGGGGGGCCACAGCAGAAGCGUUCACGACGCAGCCCCUGUCAGAUUCUGGUGAAUCUGCGAAUUCUGCUGUAUAUCUC [A5G U31A]    0.41
UAACAGGGGCCCACAGCAGGAGCGUUCACGUCGCAGCCCCUGUCAGAUUCUGGUGAAUCUGCGAAUUCUGCUGUAUAUCUC [G10C A20G]    0.19

Entry UAACAGGGGGCCACAGCAGAAGCGUUCACGUCGCAGCCCCUGUCAGAUUCUGGUGAAACAGCGAAUUCUGCUGUAUAUCUC [U58A U60A] , self-cleavage reported as 0.17

Entry UAACAGGGGGCCACAGCAGCAGCGUUCACGUCGCAGCCCCUGUCAGAUUCUGGUGAGUCUGCGAAUUCUGCUGUAUAUCUC [A20C A57G] ; self-cleavage = 0.09

Input UAACAGGGGGCCACAGCAGAAGCGUUCACGUCGCAGCCCCUGUCAUAUUCUGGUGGAUCUGCGAAUUCUGCUGUAUAUCUC [G46U A56G] . Output self-cleavage: 0.18

Notebook: UAACAUGGGGCCACACCAGAAGCGUUCACGUCGCAGCCCCUGUCAGAUUCUGGUGAAUCUGCGAAUUCUGCUGUAUAUCUC [G6U G16C] , self-cleavage read as 0.19

Reported self-cleavage ( UAACAGGGGGCCACAGCAGAAGCGUGCACGUCGCAGCCCCUGUCAGAUUCUGGUGAGUCUGCGAAUUCUGCUGUAUAUCUC [U26G A57G] ) = 0.27

The measured self-cleavage associated with UAACAGGGGGCCUCAGCAGAAGCGUUCACGUCGCAGCCCCUGUCAGAUUCUGGUGAAUCUGCGAAUUCUGCUGUUUAUCUC [A13U A75U] reads 1.28

variant UAACAGGGGGCCACAGCAGAAGCGUUCACGUCGCAGCCCCUGUCAGAUUCUGAUAAAUCUGCGAAUUCUGCUGUAUAUCUC [G53A G55A] , self-cleavage observed: 0.87

Record UAACAGGCGGCCACAGCAGAAGCGUUCACGUCGCAGCCCCUGUCAGAUUCUGGUGAAUCUGCGAAUUCUGCUGUAUACCUC [G8C U78C] . Reported self-cleavage: 0.07

So, UAACAGGGGGCCACAGGAGAAGCGUUCACGUCGCAGCCCCUGUCAGAUUCUGGUGAAUCGGCGAAUUCUGCUGUAUAUCUC [C17G U60G] ? Its self-cleavage was 0.25

For this variant ( UAACAGGGGGCCACAGCAGAAUCGUUCACGUCGCAGCCCCUGUCAGAUUCUGGUGAAUCUGCGAAUUCUGCUGUUUAUCUC [G22U A75U] ), measured self-cleavage is 0.26
